system: IDO (SKOV3 human ovarian adenocarcinoma cells, IFN-γ induced) (Homo sapiens, UniProt P14902)
Construct: IDO expression was induced in the SKOV3 cells by the addition of 500 ng/ml IFN-γ; endogenous in cells; host or cells: SKOV3 human ovarian adenocarcinoma cells, induced with IFN-γ
Sequence (P14902 whole entry): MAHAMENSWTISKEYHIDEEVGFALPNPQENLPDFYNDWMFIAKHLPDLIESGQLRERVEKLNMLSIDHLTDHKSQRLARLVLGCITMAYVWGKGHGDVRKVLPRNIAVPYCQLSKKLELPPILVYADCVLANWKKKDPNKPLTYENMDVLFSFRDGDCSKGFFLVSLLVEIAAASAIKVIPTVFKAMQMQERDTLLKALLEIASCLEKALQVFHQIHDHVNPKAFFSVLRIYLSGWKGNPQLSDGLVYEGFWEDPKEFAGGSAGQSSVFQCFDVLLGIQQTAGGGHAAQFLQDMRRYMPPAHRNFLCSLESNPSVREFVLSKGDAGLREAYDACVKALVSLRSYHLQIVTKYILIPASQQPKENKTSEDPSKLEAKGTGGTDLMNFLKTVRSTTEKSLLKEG
test.description: SKOV3 Kynurenine cell based assay
condition.info: IDO induced by 500 ng/ml IFN-γ, 500 μM L-tryptophan, 48 hours
measured.endpoint: SKOV3 Kynurenine cell based assay pIC50

>>> result("Cc1cc(C(=O)N2CCC(c3c(C)[nH]c4ccccc34)CC2)no1 [Compound 8]")
"+ (+ = pIC50 4.00-4.99)"
>>> result("CS(=O)(=O)N1CCC(c2c[nH]c3ccc(C#N)cc23)CC1 [Compound 177]")
"+ (+ = pIC50 4.00-4.99)"
>>> result("Cc1[nH]c2ccccc2c1C1=CCN(S(C)(=O)=O)CC1 [Compound 160]")
"+ (+ = pIC50 4.00-4.99)"

====

system: IDO (SKOV3 human ovarian adenocarcinoma cells, IFN-γ induced) (Homo sapiens)
Construct: IDO expression was induced in the SKOV3 cells by the addition of 500 ng/ml IFN-γ; endogenous in cells; host or cells: SKOV3 human ovarian adenocarcinoma cells, induced with IFN-γ
test.description: SKOV3 Kynurenine cell based assay
condition.info: IDO induced by 500 ng/ml IFN-γ, 500 μM L-tryptophan, 48 hours
measured.endpoint: SKOV3 Kynurenine cell based assay pIC50

Recorded results for 10 molecules are shown here.
>>> result("CS(=O)(=O)N1CCC(C2C(=O)Nc3ccc(C#N)cc32)CC1 (stereo not shown)")
"+ (+ = pIC50 4.00-4.99)"
>>> result("CC(=O)N1CC=C(c2c[nH]c3ccc(C#N)cc23)CC1")
"+ (+ = pIC50 4.00-4.99)"
>>> result("O=C1CN(c2c[nH]c3ccccc23)CCN1")
"+− (+− = pIC50 <4.00)"
>>> result("O=C(c1cccs1)N1CCC(c2c[nH]c3ccccc23)CC1")
"+ (+ = pIC50 4.00-4.99)"
>>> result("CS(=O)(=O)N1CC=C(c2c[nH]c3cc(F)ccc23)CC1")
"+ (+ = pIC50 4.00-4.99)"
>>> result("CCCS(=O)(=O)N1CCC(c2c[nH]c3ccccc23)CC1")
"+− (+− = pIC50 <4.00)"
>>> result("CS(=O)(=O)N1CC=C(c2c[nH]c3cc(Cl)ccc23)CC1")
"+ (+ = pIC50 4.00-4.99)"
>>> result("O=S(=O)(Cc1ccccc1)N1CCC(c2c[nH]c3cc(F)ccc23)CC1")
"+ (+ = pIC50 4.00-4.99)"
>>> result("COc1ccc2[nH]cc(C3CCN(S(=O)(=O)c4cccc(OC(F)(F)F)c4)CC3)c2c1")
"+ (+ = pIC50 4.00-4.99)"
>>> result("CC(=O)N1CC=C(c2c[nH]c3cccc(F)c23)CC1")
"+ (+ = pIC50 4.00-4.99)"

Per the records, this molecule ( CC(=O)N1CCC(c2c[nH]c3cc(C(F)(F)F)ccc23)CC1 ) has SKOV3 Kynurenine cell based assay pIC50 equal to + (+ = pIC50 4.00-4.99)

Per the records, this molecule ( COCCN1CC(C(=O)N2CCC(c3c[nH]c4cc(F)ccc34)CC2)CC1=O (stereo not shown) ) has SKOV3 Kynurenine cell based assay pIC50 equal to + (+ = pIC50 4.00-4.99)

Per the records, this molecule ( CC(=O)N1CC=C(c2c[nH]c3ccc(OCc4ccccc4)cc23)CC1 ) has SKOV3 Kynurenine cell based assay pIC50 equal to + (+ = pIC50 4.00-4.99)

Per the records, this molecule ( CC(C)S(=O)(=O)N1CCC(c2c[nH]c3ccccc23)CC1 ) has SKOV3 Kynurenine cell based assay pIC50 equal to +− (+− = pIC50 <4.00)

Per the records, this molecule ( CC(=O)N1CCN(c2c[nH]c3ccccc23)CC1 ) has SKOV3 Kynurenine cell based assay pIC50 equal to +− (+− = pIC50 <4.00)

Per the records, this molecule ( CN(C)S(=O)(=O)N1CC=C(c2c[nH]c3cc(F)ccc23)CC1 ) has SKOV3 Kynurenine cell based assay pIC50 equal to + (+ = pIC50 4.00-4.99)

Per the records, this molecule ( Cc1nc(N2CCC(c3c[nH]c4cc(F)ccc34)CC2)no1 ) has SKOV3 Kynurenine cell based assay pIC50 equal to + (+ = pIC50 4.00-4.99)

Per the records, this molecule ( CC(=O)N1CC=C(c2c[nH]c3ncccc23)CC1 ) has SKOV3 Kynurenine cell based assay pIC50 equal to + (+ = pIC50 4.00-4.99)

Per the records, this molecule ( CS(=O)(=O)N1CCC(c2c[nH]c3cc(F)ccc23)CC1 ) has SKOV3 Kynurenine cell based assay pIC50 equal to +− (+− = pIC50 <4.00)

Per the records, this molecule ( CCCS(=O)(=O)N1CC=C(c2c[nH]c3cc(F)ccc23)CC1 ) has SKOV3 Kynurenine cell based assay pIC50 equal to + (+ = pIC50 4.00-4.99)

Per the records, this molecule ( CNS(=O)(=O)N1CC=C(c2c[nH]c3cc(F)ccc23)CC1 ) has SKOV3 Kynurenine cell based assay pIC50 equal to + (+ = pIC50 4.00-4.99)

Per the records, this molecule ( Cc1cccc2c(C3CCN(S(=O)(=O)c4ccc(C(C)(C)C)cc4)CC3)c[nH]c12 ) has SKOV3 Kynurenine cell based assay pIC50 equal to +− (+− = pIC50 <4.00)

Per the records, this molecule ( CCc1cc(Br)ccc1S(=O)(=O)N1CCC(c2c[nH]c3ccc(C)cc23)CC1 ) has SKOV3 Kynurenine cell based assay pIC50 equal to + (+ = pIC50 4.00-4.99)

The origin of these recorded values is patent US9931347B2.
